Readings of Testes uptake for the listed molecules
Test system: LNCaP tumor-bearing mice
measurement-description: Ex vivo biodistribution in LNCaP tumor-bearing mice
Set-up: species or system mouse
experimental-context: 1 h post-injection
Description: Imaging, biodistribution and radioligand therapy experiments were performed following previously published procedures using male NOD-scid IL2Rg^null (NSG) or NOD.Cg-Rag1^tm1MomIl2rg^tm1Wjl/SzJ (NRG) mice [10]-[12],[14]-[15]. […] For biodistribution studies, the mice were injected with the radioligand (2-4 MBq) as described above. […] Blood was withdrawn by cardiac puncture, and organs/tissues of interest were collected, weighed and counted using an automatic gamma counter (Tables S4-S7).
The figure you give is taken to be in %ID/g; do not add the unit.

For the molecule shown here, COc1ccc(CCCC(=O)NCC(=O)N[C@@H](CCCCNC(=O)CN2CCN(CC(=O)[O-])CCN(CC(=O)[O-])CCN(CC(=O)[O-])CC2)C(=O)NC[C@H]2CC[C@H](C(=O)N[C@@H](Cc3c4ccccc4cc4ccccc34)C(=O)NCCCC[C@H](NC(=O)N[C@@H](CCCC(=O)O)C(=O)O)C(=O)O)CC2)cc1.[177Lu+3] [[^177Lu]Lu-HTK03170] , give the reported Testes uptake.
2.17

Moving on to COc1ccc(CCCC(=O)NCC(=O)N[C@@H](CCCCNC(=O)CN2CCN(CC(=O)[O-])CCN(CC(=O)[O-])CCN(CC(=O)[O-])CC2)C(=O)NC[C@H]2CC[C@H](C(=O)N[C@@H](Cc3c4ccccc4cc4ccccc34)C(=O)NCCCC[C@H](NC(=O)N[C@@H](CSCC(=O)O)C(=O)O)C(=O)O)CC2)cc1.[177Lu+3] [[^177Lu]Lu-HTK04048]
2.60
